biological target: 5-HT1A receptor (Homo sapiens); construct: expressed in transfected cells; host or cells: CHO cells, stably transfected; experiment: cell-based; settings: CHO, agonist, Ca2+ flux, CHO cells with Gα15, max dose; read-out: 5-HT1A % Act @ Max Dose
Kindly state Emax for each of the entries shown.
Answers are plain numbers, in %.

These recorded examples may help you get a feel for the data.
CCN(CC)C(=O)[C@@H]1C=C2c3cccc4[nH]cc(c34)C[C@H]2N(CCc2cccc(OC)c2)C1: 3.85
CCN(CC)C(=O)[C@@H]1C=C2c3cccc4[nH]cc(c34)C[C@H]2N(Cc2cccc(O)c2)C1: 22.7
CCN(CC)C(=O)[C@@H]1C=C2c3cccc4[nH]cc(c34)C[C@H]2N(CC2CCCCC2)C1: 84.4

I'm hoping you can list Emax for every compound here, please.
1. CCN(CC)C(=O)[C@@H]1C=C2c3cccc4[nH]cc(c34)C[C@H]2N(Cc2cccnc2)C1
2. CCN(CC)C(=O)[C@@H]1C=C2c3cccc4[nH]cc(c34)C[C@H]2N(Cc2ccc(Cl)cc2)C1
3. CN(C)C(=O)[C@@H]1C=C2c3cccc4[nH]cc(c34)C[C@H]2N(Cc2ccccc2)C1

108
8.23
90.1

Under 5-HT1A receptor (Homo sapiens): Emax value of "CCN(CC)C(=O)[C@@H]1C=C2c3cccc4[nH]cc(c34)C[C@H]2N(Cc2ccc(C)cc2)C1" ?
84.5

---

target: 5-HT1A receptor (Homo sapiens, UniProt P08908); construct: expressed in transfected cells; host or cells: CHO cells, stably transfected; test: cell-based; details: CHO, agonist, Ca2+ flux, CHO cells with Gα15, max dose; read-out: 5-HT1A % Act @ Max Dose
Sequence (P08908 whole entry): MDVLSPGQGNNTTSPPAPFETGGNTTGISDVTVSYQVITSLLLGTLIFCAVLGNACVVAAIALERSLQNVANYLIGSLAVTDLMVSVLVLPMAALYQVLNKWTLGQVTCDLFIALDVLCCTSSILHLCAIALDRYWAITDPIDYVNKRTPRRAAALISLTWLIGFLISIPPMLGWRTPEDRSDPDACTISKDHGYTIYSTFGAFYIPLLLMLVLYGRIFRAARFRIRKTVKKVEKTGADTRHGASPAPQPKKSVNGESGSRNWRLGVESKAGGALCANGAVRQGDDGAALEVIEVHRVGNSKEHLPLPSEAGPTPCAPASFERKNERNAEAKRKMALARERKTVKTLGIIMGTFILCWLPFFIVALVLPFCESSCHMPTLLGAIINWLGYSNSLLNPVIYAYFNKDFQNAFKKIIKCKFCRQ
Hi, to clarify the labels: rule met covers Emax from 80% upward, rule not met covers anything below 80%.

Example entries begin here.
CCN(CC)C(=O)[C@@H]1C=C2c3cccc4[nH]cc(c34)C[C@H]2N(Cc2ccccc2)C1: rule not met
CCC[C@@H](C)NC(=O)[C@@H]1C=C2c3cccc4[nH]cc(c34)C[C@H]2N(C)C1: rule met
CC[C@@H](C)NC(=O)[C@H]1C=C2c3cccc4[nH]cc(c34)C[C@H]2N(CC)C1: rule met
CCN(CC)C(=O)[C@H]1C=C2c3cccc4[nH]cc(c34)C[C@H]2N(CC2CCCC2)C1 [Compound 90a]: rule met
CCN(CC)C(=O)[C@@H]1C=C2c3cccc4[nH]cc(c34)C[C@H]2N(Cc2ccccc2OC)C1: rule not met

Given the entry "CCC[C@@H](C)NC(=O)[C@@H]1C=C2c3cccc4[nH]c(Br)c(c34)C[C@H]2N(C)C1" , answer whether its Emax meets or surpasses 80%.
rule not met

Follow-up entry: "CCN(C)C(=O)[C@@H]1C=C2c3cccc4[nH]cc(c34)C[C@H]2N(Cc2ccccc2)C1"
rule not met

---

Kindly state metabolised for each of the entries shown.
assay: in vitro; format: in vitro ADME, human; settings: human, microsomes, role: substrate; metabolite 83 formed in HLM, T = 5; read-out: Metabolite Formation (percent formation of metabolite 83)

CCN(CC)C(=O)[C@@H]1C=C2c3cccc4[nH]cc(c34)C[C@H]2N(Cc2cccc(OC)c2)C1 [Compound 18]: 3.4%

Could you share which metabolised value was measured for [2H]C([2H])(c1cccc(OC)c1)N1C[C@H](C(=O)N(CC)CC)C=C2c3cccc4[nH]cc(c34)C[C@H]21 [Compound 68] ?
2.9%

---

Molecular target: 5-HT2B receptor (Homo sapiens)
Construct: expressed in transfected cells; host or cells: HEK293, stably transfected
Sequence (P41595 whole entry): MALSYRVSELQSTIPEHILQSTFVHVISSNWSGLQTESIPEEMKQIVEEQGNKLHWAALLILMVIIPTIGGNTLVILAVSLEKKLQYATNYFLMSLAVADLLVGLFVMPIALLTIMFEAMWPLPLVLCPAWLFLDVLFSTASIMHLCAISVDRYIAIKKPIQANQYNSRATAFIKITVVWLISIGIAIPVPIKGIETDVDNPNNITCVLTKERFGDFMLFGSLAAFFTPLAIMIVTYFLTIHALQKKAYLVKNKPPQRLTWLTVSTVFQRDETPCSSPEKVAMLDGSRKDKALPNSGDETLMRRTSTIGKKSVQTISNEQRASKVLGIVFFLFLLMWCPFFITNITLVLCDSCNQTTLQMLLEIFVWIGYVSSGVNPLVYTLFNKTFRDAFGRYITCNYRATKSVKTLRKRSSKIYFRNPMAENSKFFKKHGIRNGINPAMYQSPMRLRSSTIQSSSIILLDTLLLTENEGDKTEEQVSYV
Test: cell-based
Type: cell-based
Conditions: HEK293, agonist, Ca2+ flux, HEK293, max dose; read-out: 5-HT2B % Act @ Max Dose
Description: Functional Assays at 5-HT2A, 5-HT2B, and 5-HT1A. Agonist activity at 5-HT2A, 5-HT2B, 5HT2C and 5-HT1A receptors was determined using a FLIPR Ca^2+ flux assay at WuXi AppTec (Hong Kong) Limited according to their standard protocols. […] 10 μL of references and compounds were then transferred from the compound plate into the cell plate and the fluorescent signal was read.
Hi, to clarify the labels: TRUE covers Emax from 20% upward, FALSE covers anything below 20%.

CC[C@@H](C)NC(=O)[C@@H]1C=C2c3cccc4[nH]cc(c34)C[C@H]2N(CC)C1: TRUE

Given the entry "CCN(CC)C(=O)[C@@H]1C=C2c3cccc4[nH]cc(c34)C[C@H]2N(Cc2ccncc2)C1" , answer whether its Emax meets or surpasses 20%.
FALSE

Follow-up entry: "CC[C@@H](C)NC(=O)[C@H]1C=C2c3cccc4[nH]cc(c34)C[C@H]2N(CC)C1"
TRUE

---

Kindly state Emax for each of the entries shown.
Molecular target: 5-HT2A receptor (Homo sapiens)
Experiment: cell-based
Assay type: cell-based
Conditions: agonist, beta-arrestin recruitment, max dose; read-out: 5-HT2A Arrestin % Act @ Max Dose
Description: Arrestin Functional Assay at 5-HT2A. Recruitment of beta-arrestin was determined using a PathHunter assay at Eurofins DiscoverX (Fremont, CA) according to their standard protocols. PathHunter GPCR beta-arrestin assays take advantage of DiscoverX's proprietary Enzyme Fragment Complementation technology. […] This interaction leads to an increase in enzyme activity that can be measured using chemiluminescent PathHunter Detection Reagents. […]
Numbers only, in %.

These recorded examples may help you get a feel for the data.
CCC(CC)NC(=O)[C@@H]1C=C2c3cccc4[nH]cc(c34)C[C@H]2N(C)C1: 44.4
CC[C@@H](C)NC(=O)[C@@H]1C=C2c3cccc4[nH]cc(c34)C[C@H]2N(CC)C1: 106
CCCN1C[C@H](C(=O)N(CC)CC)C=C2c3cccc4[nH]cc(c34)C[C@H]21: 129

Could you share which Emax value was measured for "CCN(CC)C(=O)[C@@H]1C=C2c3cccc4[nH]cc(c34)C[C@H]2N(CCc2cccc(OC)c2)C1" ?
83.5

---

target: 5-HT2A receptor (Homo sapiens)
metric-name: Ki (nM)
Answers are plain numbers, in nM.

These recorded examples may help you get a feel for the data.
CCN(CC)C(=O)[C@@H]1C=C2c3cccc4[nH]cc(c34)C[C@H]2N(Cc2ccon2)C1 [Compound 70]: 13.6
CCCN(CC)C(=O)[C@H]1C=C2c3cccc4[nH]cc(c34)C[C@H]2N(Cc2ccccc2)C1 [Compound 86a]: 671

I'm hoping you can list Ki for every molecule here, please.
1. CC[C@@H](C)NC(=O)[C@@H]1C=C2c3cccc4[nH]cc(c34)C[C@H]2N(Cc2cccc(OC)c2)C1 [Compound 95]
2. CCN(CC)C(=O)[C@@H]1C=C2c3cccc4[nH]cc(c34)C[C@H]2N(Cc2ccc(F)c(OC)c2)C1 [Compound 60]
3. CN(C)C(=O)[C@H]1C=C2c3cccc4[nH]cc(c34)C[C@H]2N(Cc2ccccc2)C1 [Compound 102a]
4. CCN(C)C(=O)[C@H]1C=C2c3cccc4[nH]cc(c34)C[C@H]2N(Cc2ccccc2)C1 [Compound 85a]

[15.3, 6.18, 349, 516]

---

test: in vitro; format: in vitro ADME, rat; details: RLM (male Sprague-Dawley) 0.50 mg/mL, NADPH 1 mM, 1 μM compound, pH 7.4, 37° C., 60 min
metric-name: Intrinsic clearance (Clint) (µL/min/mg)
Answers are plain numbers, in µL/min/mg.

These recorded examples may help you get a feel for the data.
CCN(CC)C(=O)[C@@H]1C=C2c3cccc4[nH]cc(c34)C[C@H]2N(Cc2cccc(OC)c2)C1 [Compound 18]: 262.8
CCN(CC)C(=O)[C@@H]1C=C2c3cccc4[nH]cc(c34)C[C@H]2NC1 [Compound 83]: 15.3
CCN(CC)C(=O)[C@@H]1C=C2c3cccc4[nH]cc(c34)C[C@H]2N(CCc2ccccn2)C1 [Compound 23]: 331.7

Could you share which Intrinsic clearance (Clint) value was measured for CCN(CC)C(=O)[C@@H]1C=C2c3cccc4[nH]cc(c34)C[C@H]2N(CCc2ccccc2OC)C1 [Compound 11] ?
1195.423

---

biological target: 5-HT2A receptor (Homo sapiens, UniProt P28223)
Sequence (P28223 whole entry): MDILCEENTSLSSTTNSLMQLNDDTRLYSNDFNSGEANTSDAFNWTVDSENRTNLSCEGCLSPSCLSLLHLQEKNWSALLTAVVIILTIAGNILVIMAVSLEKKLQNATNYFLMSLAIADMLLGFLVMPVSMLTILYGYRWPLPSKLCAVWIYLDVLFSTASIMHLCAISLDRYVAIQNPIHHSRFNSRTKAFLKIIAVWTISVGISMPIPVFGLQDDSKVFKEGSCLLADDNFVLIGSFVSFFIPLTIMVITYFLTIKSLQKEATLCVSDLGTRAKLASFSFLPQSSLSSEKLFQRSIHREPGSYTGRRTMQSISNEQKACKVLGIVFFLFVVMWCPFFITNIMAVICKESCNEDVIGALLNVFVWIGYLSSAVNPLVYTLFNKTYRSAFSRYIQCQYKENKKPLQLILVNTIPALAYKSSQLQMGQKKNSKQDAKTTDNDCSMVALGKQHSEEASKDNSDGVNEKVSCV
Please use Fulfilled for Ki under 9 nM and Not fulfilled for everything else, ties included.

Example entries begin here.
CCN(CC)C(=O)[C@@H]1C=C2c3cccc4[nH]cc(c34)C[C@H]2N(Cc2cocn2)C1: Fulfilled
[2H]C(c1cccc(OC)c1)N1C[C@@H](C(=O)N(CC)CC)C=C2c3cccc4[nH]cc(c34)C[C@H]21 (stereo partly shown) [Compound 96a]: Not fulfilled
O=C([C@@H]1C=C2c3cccc4[nH]cc(c34)C[C@H]2N(Cc2ccccc2)C1)N1CCCC1: Not fulfilled
CCN(CC)C(=O)[C@H]1C=C2c3cccc4[nH]cc(c34)C[C@H]2N(Cc2ccccc2C)C1 [Compound 99a]: Not fulfilled
C[C@H]1C[C@H](C)N1C(=O)[C@@H]1C=C2c3cccc4[nH]cc(c34)C[C@H]2N(Cc2ccccc2)C1: Fulfilled

Given the entry "COc1cccc(CN2C[C@H](C(=O)N3[C@@H](C)C[C@@H]3C)C=C3c4cccc5[nH]cc(c45)C[C@H]32)c1" , would its reported Ki be below 9 nM?
Not fulfilled
